RUN_DESCRIPTION: Cellular viability qHTS for adrenocortical cancer (ACC) cell line NCI-H295R (AID 1963990); further: nearly all actives have a fitted effect of over 60% in size
EXPERIMENTAL_CONDITIONS: CellTiter-Glo ATP luminescence, 48 h; series mostly up to 46.1 µM
Results filed as inconclusive are left out. Calls of active or inactive are those of the source. The call rests on the fitted dose curve; in most records, active means well fitted cell-killing curve with a large enough effect; inconclusive means small, poorly fitted or top-dose-only effect; inactive means flat fitted curve, though single readings scatter.
Answer with one of the outcomes given here: 1 (active), 0 (inactive)

Use the examples below as a reference point.
MOLECULE: C=CCC1([C@H](C)CCC)C(=O)NC(=O)NC1=O
DISCRETE_LABEL: 0

MOLECULE: C[C@]12CC[C@H]3[C@@H](CCC4=CC(=O)CC[C@@H]43)[C@@H]1CC[C@@H]2OC(=O)CCc1ccco1
DISCRETE_LABEL: 1

MOLECULE: O=C1C(I)=CC(=C(c2cc(I)c(O)c(I)c2)c2ccccc2C(=O)O)C=C1I
DISCRETE_LABEL: 1

MOLECULE: CCN(CC)C(=O)[C@@H]1C=C2c3cccc4[nH]cc(c34)C[C@H]2N(C)C1
DISCRETE_LABEL: 0

MOLECULE: O=c1[nH]c2ccc(Cl)cc2c(N[C@@H]2CN3CCC2CC3)c1-c1nc2ccccc2[nH]1
DISCRETE_LABEL: 1

Which outcome was entered for the molecule CCOC(=O)C1(c2ccccc2)CCN(CCc2ccc(N)cc2)CC1 in this test?
0

Each molecule tested received a call. Report the one for CNC(C)Cc1ccccc1OC (stereo not drawn) .
0

Which result was noted for this molecule in the test: Cc1ccc(N=CN(C)C=Nc2ccc(C)cc2C)c(C)c1
0

Outcome? CN[C@@H]1C[C@H]2O[C@@](C)([C@@H]1OC)n1c3ccccc3c3c4c(c5c6ccccc6n2c5c31)C(=O)NC4
1

Any idea what this test logged for CCCN(CCC)C(=O)Cc1c(-c2ccc(Cl)cc2)nc2ccc(Cl)cn12 ?
0

Per the records of this test, what outcome belongs to Nc1ccncc1 ?
0

Tell me the recorded outcome of this test for C[C@]12CC[C@@H]3c4ccc(OC(=O)N(CCCl)CCCl)cc4CC[C@H]3[C@@H]1CC[C@@H]2O .
0

GET /call?item= N[C@@H](Cc1ccc(N(CCCl)CCCl)cc1)C(=O)O returns the recorded outcome of this test.
1

Outcome? COc1c2c(cc3c1OCO3)CCN(C)C2
0

What outcome does the record of this test show for CCOC(=O)Nc1ccc(NCc2ccc(F)cc2)cc1N ?
0

// outcome(item) with item = O=C(O)c1nn(Cc2ccc(Cl)cc2Cl)c2ccccc12
0

I'd appreciate the recorded outcome for CNC(C)Cc1ccc2c(c1)OCO2 (stereo not drawn) from this test.
0

Name the outcome recorded for CCCCCCCCCC(CC)c1ccc(S(=O)(=O)O)cc1 (stereo not drawn) in the assay.
1

I would be grateful if you could indicate the recorded call for CC(C)[C@H]1C(=O)N[C@H](CO)Cc2c[nH]c3cccc(c23)N1C .
0

Dear colleague, could you share the recorded outcome for COP(=S)(OC)Oc1ccc(S(=O)(=O)N(C)C)cc1 when you have a moment?
0

Field: outcome | Entry: CCCCCCCCCC(=O)O[C@H]1CC[C@H]2[C@@H]3CCC4=CC(=O)CC[C@@H]4[C@H]3CC[C@]12C
0

Entry C[C@H](N)C(=O)c1ccccc1 : call = ?
0

Kindly provide the recorded test outcome for the following molecule: CCC1(c2ccccc2)CCC(=O)NC1=O (stereo not drawn)
0
